- Assay target: PI3K-α (Homo sapiens)
- Sequence (P42336 whole entry, species assumed): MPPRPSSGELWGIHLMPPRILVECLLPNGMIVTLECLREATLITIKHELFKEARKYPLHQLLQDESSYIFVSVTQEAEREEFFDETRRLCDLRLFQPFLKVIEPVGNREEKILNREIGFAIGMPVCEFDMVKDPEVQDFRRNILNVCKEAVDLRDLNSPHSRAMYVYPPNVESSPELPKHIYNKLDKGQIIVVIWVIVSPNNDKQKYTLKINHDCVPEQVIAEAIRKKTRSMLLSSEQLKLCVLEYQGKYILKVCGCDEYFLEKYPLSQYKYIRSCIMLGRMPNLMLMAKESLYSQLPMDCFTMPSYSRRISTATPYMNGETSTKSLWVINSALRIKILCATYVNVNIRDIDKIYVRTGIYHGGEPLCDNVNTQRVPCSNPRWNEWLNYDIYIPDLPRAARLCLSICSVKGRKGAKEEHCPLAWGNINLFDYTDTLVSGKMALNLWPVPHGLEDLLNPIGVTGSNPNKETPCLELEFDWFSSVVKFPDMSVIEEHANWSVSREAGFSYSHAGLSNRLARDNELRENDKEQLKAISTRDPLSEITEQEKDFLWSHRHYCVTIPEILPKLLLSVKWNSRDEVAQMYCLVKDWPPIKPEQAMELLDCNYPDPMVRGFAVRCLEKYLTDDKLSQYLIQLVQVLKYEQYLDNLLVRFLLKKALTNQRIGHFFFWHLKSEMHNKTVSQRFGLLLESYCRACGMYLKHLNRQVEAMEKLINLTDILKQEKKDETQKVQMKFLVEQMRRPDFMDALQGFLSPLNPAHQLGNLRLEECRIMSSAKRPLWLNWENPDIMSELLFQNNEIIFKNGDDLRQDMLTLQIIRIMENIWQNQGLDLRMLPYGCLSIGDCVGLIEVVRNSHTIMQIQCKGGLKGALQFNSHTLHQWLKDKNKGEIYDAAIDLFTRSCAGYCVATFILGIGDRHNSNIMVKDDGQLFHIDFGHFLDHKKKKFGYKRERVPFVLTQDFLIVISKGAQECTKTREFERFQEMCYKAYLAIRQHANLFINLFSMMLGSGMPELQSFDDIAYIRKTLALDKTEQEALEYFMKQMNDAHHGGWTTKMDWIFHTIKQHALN
- Sequence (P27986 whole entry partner, species assumed): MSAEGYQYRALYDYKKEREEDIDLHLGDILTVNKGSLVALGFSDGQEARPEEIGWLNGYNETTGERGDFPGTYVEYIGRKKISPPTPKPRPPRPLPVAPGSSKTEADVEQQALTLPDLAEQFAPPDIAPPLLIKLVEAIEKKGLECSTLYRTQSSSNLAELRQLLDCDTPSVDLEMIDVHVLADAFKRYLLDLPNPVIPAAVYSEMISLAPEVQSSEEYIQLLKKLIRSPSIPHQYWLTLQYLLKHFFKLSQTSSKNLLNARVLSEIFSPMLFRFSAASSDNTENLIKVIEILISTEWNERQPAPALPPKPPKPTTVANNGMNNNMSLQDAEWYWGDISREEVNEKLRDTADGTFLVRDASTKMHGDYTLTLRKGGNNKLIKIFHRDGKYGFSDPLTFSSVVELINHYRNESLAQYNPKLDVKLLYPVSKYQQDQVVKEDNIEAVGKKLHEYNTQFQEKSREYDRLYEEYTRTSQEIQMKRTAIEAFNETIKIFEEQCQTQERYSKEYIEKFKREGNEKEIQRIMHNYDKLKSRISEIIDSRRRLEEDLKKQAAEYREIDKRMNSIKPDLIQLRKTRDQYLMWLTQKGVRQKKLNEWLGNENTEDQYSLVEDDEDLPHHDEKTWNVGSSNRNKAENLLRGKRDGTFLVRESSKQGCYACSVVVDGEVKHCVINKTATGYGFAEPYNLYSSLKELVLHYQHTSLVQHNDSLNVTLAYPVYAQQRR
- Procedure details: PI3K-alpha fluorescence polarization assay
- Settings: read-out: IC50 PI3Kα
Observation type: log10 IC50 (log10 of the value in nM)
In plain terms, each number is the log10 of measured IC50 in nM.

## Task Determine reported log10 IC50 for CN1CCN(C(=O)c2ccc(NC(=O)Nc3ccc(-c4nc(N5CCOCC5)nc(N5C6CCC5COC6)n4)cc3)cc2)CC1(C)C ; test system: PI3K-α (Homo sapiens).
## Result 0.57

## Task Give the observed log10 IC50 of CN1CCN(CC(=O)Nc2ccc(NC(=O)Nc3ccc(-c4nc(N5CC6CCC(C5)O6)nc(N5CC6CCC(C5)O6)n4)cc3)cc2)CC1 for PI3K-α (Homo sapiens).
## Result 1.06

## Task Report log10 IC50 from PI3K-α (Homo sapiens) testing of COC(CNc1nc(-c2ccc(NC(=O)Nc3cccnc3)cc2)nc(N2CCOCC2)n1)OC
## Result 1.62

## Task Supply log10 IC50 measured with PI3K-α (Homo sapiens) for O=C(Nc1ccncc1)Nc1ccc(-c2nc(-c3ccccc3)nc(N3CCOCC3)n2)cc1 .
## Result 1.63

## Task Jot down log10 IC50 (PI3K-α (Homo sapiens)) of CC(C)(C)Nc1nc(-c2ccc(NC(=O)Nc3cccnc3)cc2)nc(N2CC3CCC(C2)O3)n1 .
## Result 2.02

## Task Give log10 IC50 only, for O=C(Nc1ccccc1)Nc1ccc(-c2nc(OC3CCOCC3)nc(N3CCOCC3)n2)cc1 , using PI3K-α (Homo sapiens) data.
## Result 0.70

## Task Give log10 IC50 for O=C(Nc1ccncc1)Nc1ccc(-c2nc(N3CCOCC3)nc(N3C4COCC3COC4)n2)cc1 tested on PI3K-α (Homo sapiens).
## Result 0.93

====

Catalogue of pIC50 readings, one per entry.
- Test system: human prostate PC3-mm2 tumor cell line
- Procedure details: In vitro cell culture growth assay (MTS), PC3-mm2
- Assay type: cell-based
- Settings: Homo sapiens, PC3MM2, 72 h, MTS cell growth assay, three days after drug treatment; read-out: IC50 PC3-mm2
Give only the number. pIC50 is defined as minus log10 of concentration in molar units.

## Task Item CC(C)(C)OC(=O)N1CC(Nc2nc(-c3ccc(NC(=O)Nc4cccnc4)cc3)nc(N3CCOCC3)n2)C1 : provide pIC50
## Result 6.48

## Task Dear colleague, please send me the reported pIC50 for CC(C)(C)OC(=O)N1CC(CNc2nc(-c3ccc(NC(=O)Nc4ccncc4)cc3)nc(N3CCOCC3)n2)C1 when you can.
## Result 6.16

## Task Entry CCCCc1nc(-c2ccc(NC(=O)Nc3ccc(C(=O)NC4CCN(C)CC4)cc3)cc2)nc(N2CCOCC2)n1 needs its pIC50 filled in; supply it.
## Result 6.47

## Task Provide measured pIC50 value, entry: CCc1nc(-c2ccc(NC(=O)Nc3ccc(N4CCN(C)CC4)cc3)cc2)nc(N2CCOCC2)n1
## Result 6.88

## Task Look up and report measured pIC50 for this entry: CN(C)C1CCN(C(=O)c2ccc(NC(=O)Nc3ccc(-c4nc(C5=CCOCC5)nc(N5CCOCC5)n4)cc3)cc2)CC1
## Result 7.48

## Task Write down pIC50 measured for item CC(C)c1nc(-c2ccc(NC(=O)Nc3ccc(C(=O)NC4CN(C)C4)cc3)cc2)nc(N2CCOCC2)n1
## Result 6.44

## Task For CCc1nc(-c2ccc(NC(=O)Nc3ccc(C(=O)N4CCC(c5ccccc5)CC4)cc3)cc2)nc(N2CCOCC2)n1 , write its pIC50.
## Result 7.13

## Task Tell me pIC50 reported for O=C(Nc1ccc(C(=O)NCCN2CCCCC2)cc1)Nc1ccc(-c2nc(N3CCOCC3)nc(N3CCOCC3)n2)cc1
## Result 7.85

## Task For the compound CC(C)Cc1nc(-c2ccc(NC(=O)Nc3ccc(C(=O)N4CCN(C)CC4)cc3)cc2)nc(N2CCOCC2)n1 , give its reported pIC50.
## Result 7.07

## Task Provide only the value of recorded pIC50 for O=C(Nc1ccc(-c2nc(N3CCOCC3)nc(N3CCOCC3)n2)cc1)Nc1ccc(C(F)(F)F)cc1
## Result 6.01

## Task Read the entry CC(C)c1nc(-c2ccc(NC(=O)Nc3ccc(C(=O)N4CCC(N(C)C)CC4)cc3)cc2)nc(N2CCOCC2)n1 and write its reported pIC50.
## Result 7.28

The reported measurements were obtained from patent US20090304692A1.
